# tgt: human ether-à-go-go-related gene (hERG) potassium channel (human, UniProt Q12809)
# Sequence (Q12809 whole entry, looked up): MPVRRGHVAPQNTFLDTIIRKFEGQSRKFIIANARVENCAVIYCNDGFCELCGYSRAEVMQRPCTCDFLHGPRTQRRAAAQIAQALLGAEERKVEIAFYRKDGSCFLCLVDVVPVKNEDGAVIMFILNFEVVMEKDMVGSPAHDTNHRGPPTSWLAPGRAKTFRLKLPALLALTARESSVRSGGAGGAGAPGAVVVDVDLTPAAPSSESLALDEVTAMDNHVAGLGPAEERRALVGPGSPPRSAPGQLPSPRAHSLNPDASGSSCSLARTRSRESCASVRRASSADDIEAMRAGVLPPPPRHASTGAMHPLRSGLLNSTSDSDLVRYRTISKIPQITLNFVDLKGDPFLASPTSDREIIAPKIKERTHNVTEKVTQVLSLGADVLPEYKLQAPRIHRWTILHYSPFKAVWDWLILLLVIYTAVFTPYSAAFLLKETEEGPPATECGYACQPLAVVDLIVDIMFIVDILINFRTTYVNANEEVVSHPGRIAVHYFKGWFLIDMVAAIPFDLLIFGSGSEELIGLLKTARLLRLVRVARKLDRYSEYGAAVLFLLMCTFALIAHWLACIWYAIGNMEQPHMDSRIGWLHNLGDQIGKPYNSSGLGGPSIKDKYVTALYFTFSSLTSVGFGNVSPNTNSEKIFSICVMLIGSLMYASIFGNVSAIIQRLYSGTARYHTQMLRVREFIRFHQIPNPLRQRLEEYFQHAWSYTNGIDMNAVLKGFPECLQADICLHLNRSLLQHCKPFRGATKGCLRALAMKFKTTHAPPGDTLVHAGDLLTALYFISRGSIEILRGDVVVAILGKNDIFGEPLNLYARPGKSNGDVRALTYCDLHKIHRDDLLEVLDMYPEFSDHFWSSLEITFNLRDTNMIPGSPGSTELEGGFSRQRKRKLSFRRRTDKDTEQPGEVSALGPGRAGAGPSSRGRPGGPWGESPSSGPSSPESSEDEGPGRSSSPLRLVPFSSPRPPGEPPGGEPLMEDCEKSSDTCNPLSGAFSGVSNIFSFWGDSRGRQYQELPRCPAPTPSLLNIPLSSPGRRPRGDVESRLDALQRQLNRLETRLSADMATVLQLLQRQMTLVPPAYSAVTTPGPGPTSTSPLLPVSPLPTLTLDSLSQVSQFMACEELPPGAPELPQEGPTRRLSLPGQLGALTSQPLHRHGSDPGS
# assay_name: primary screen, population patch clamp on CHO cells stably expressing hERG; higher = less effect of the substance;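 note: peak tail current of the secondary pulse compared with the same well before compound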
Among all 310,000 compounds or so, about 14,000 (4.5%) showed an effect of 50% or more. The effect is printed as a negative number. Shown is part of a subset that was picked to be rich in strong results.
# hERG current change (%, negative = inhibition) at 10uM annotations
Note: unit % is implicit; provide only the numeric part.

Req: Give the measured hERG current change (%, negative = inhibition) at 10uM of "CCC(=O)c1ccccc1OCCN1CCN(Cc2ccccc2)CC1.O=C(O)C(=O)O" .
Resp: -59.1

Req: // returns reported hERG current change (%, negative = inhibition) at 10uM for input "CCN(CC)CCCNC(=O)c1ccc(N2CCCCC2)c(NS(=O)(=O)c2ccc(C)cc2)c1"
Resp: -69.2

Req: Item under review: "Cc1ccccc1Cn1c(CN2CCc3ccccc3C2)nc2c1c(=O)n(C)c(=O)n2C" . Reported hERG current change (%, negative = inhibition) at 10uM?
Resp: -15.9

Req: Reported hERG current change (%, negative = inhibition) at 10uM for "O=C(O)C(=O)O.c1ccc(CNC23CC4CC(CC(C4)C2)C3)nc1" : what is it?
Resp: 15.3

Req: So what does the record say about hERG current change (%, negative = inhibition) at 10uM for CC(C)(C)OC(=O)NC(CC(=O)OCc1ccccc1)C(=O)O (stereo not shown) ?
Resp: 10.1

Req: Give its hERG current change (%, negative = inhibition) at 10uM value. Item: O=C(CN1C(=O)C2C3C=CC(C4CC34)C2C1=O)Nc1cccc2ncccc12 (stereo not shown)
Resp: 0.881

Req: // returns reported hERG current change (%, negative = inhibition) at 10uM for input "CCC(=O)c1ccccc1OCCCN1CCC(Cc2ccccc2)CC1.O=C(O)C(=O)O"
Resp: -78.5

Req: Request the reported hERG current change (%, negative = inhibition) at 10uM associated with "Cc1ccc(C(=O)Nc2nnc(SCC(=O)N3CCCc4ccccc43)s2)cc1"
Resp: 7.27

Req: hERG current change (%, negative = inhibition) at 10uM lookup needed for "CCC(=O)c1ccccc1OCCN1CCN(CC)CC1.O=C(O)C(=O)O" , thanks.
Resp: -13.7

Req: Looking for the measured hERG current change (%, negative = inhibition) at 10uM of "Cc1ccc(C(=O)COC(=O)c2cc(Cl)ccc2O)cc1[N+](=O)[O-]" , can you help?
Resp: 10.4

Req: Quick check: hERG current change (%, negative = inhibition) at 10uM of COCC(C)n1c(C)cc(C(=O)CN2C(=O)NC3(CCCCC3C)C2=O)c1C (stereo not shown) ?
Resp: -8.29

Req: Could you tell me which hERG current change (%, negative = inhibition) at 10uM is on file for CC(C)(C)OC(=O)NC(Cc1ccccc1)C(=O)O (stereo not shown) ?
Resp: -50.5

Req: Name the recorded hERG current change (%, negative = inhibition) at 10uM for "CC(=O)c1ccc(N2CCN(C(=O)COc3ccc4c(c3)CCC4)CC2)cc1" .
Resp: -34

Req: Consider the compound "COCCn1c(CN2CCN(c3ccc(OC)cc3)CC2)nc2c1c(=O)n(C)c(=O)n2C" and give its measured hERG current change (%, negative = inhibition) at 10uM.
Resp: -9.23

Req: I'd like to know its hERG current change (%, negative = inhibition) at 10uM. The compound in question is COc1ccc(C(=O)C2CCCN(Cc3cccn3-c3ccccn3)C2)c(C)c1 (stereo not shown)
Resp: -78.9

Req: Please give the measured hERG current change (%, negative = inhibition) at 10uM for this compound: COc1ccc(C(=O)C2CCCN(CCO)C2)c(C)c1 (stereo not shown)
Resp: 4.23

Req: Recorded hERG current change (%, negative = inhibition) at 10uM of "Cc1c(N=Cc2c(O)n(CCc3ccc(F)cc3)c(=O)[nH]c2=O)c(=O)n(-c2ccccc2)n1C" , please.
Resp: -61.9

Req: Find the recorded hERG current change (%, negative = inhibition) at 10uM belonging to NC(=O)NN=C1C2CCCC1C(c1ccccc1)NC2c1ccccc1 (stereo not shown) and report it.
Resp: -7.17

Req: Which hERG current change (%, negative = inhibition) at 10uM value is on record for "Cc1ccc(C)c(Cn2c(CN(C)Cc3ccccc3)nc3c2c(=O)n(C)c(=O)n3C)c1" ?
Resp: -51.3

----------
# tgt: human ether-à-go-go-related gene (hERG) potassium channel (human, UniProt Q12809)
# assay_name: primary screen, population patch clamp on CHO cells stably expressing hERG; higher = less effect of the substance
The whole screen tested about 310,000 compounds, of which about 14,000 (4.5%) showed an effect of 50% or more. The effect is printed as a negative number. Only a selection was taken, and strong results are over-represented in it overall.
outcome_measure: hERG current change (%, negative = inhibition) at 10uM (%)
Quick reminder: number only, in %, skip the unit.

Below, each entry is followed by its recorded hERG current change (%, negative = inhibition) at 10uM result.
molecule=Cc1ccc(S(=O)(=O)NCCC(=O)N2CCN(S(=O)(=O)c3ccccc3)CC2)cc1C observed_result=-16.6
molecule="CC1CC(C)CN(c2ccc(-n3cnnn3)cc2[N+](=O)[O-])C1 (stereo not shown)" observed_result=-18.4
molecule=COc1cc(CN2CC=C(c3ccc(F)cc3)CC2)cc(OC)c1 observed_result=-57.3
molecule=CCCc1cc(NCc2ccccn2)n2nc(C)c(-c3ccccc3)c2n1 observed_result=4.77
molecule=CCN(CC)c1ccc2c(C)c(CN3CCOCC3)c(=O)oc2c1 observed_result=-11.1

Req: // hERG current change (%, negative = inhibition) at 10uM lookup, key: "COc1ccc(CCNc2cc(C)nc3c(-c4ccc(Cl)cc4)c(C)nn23)cc1OC"
Resp: 15.5

Req: If you can, please state the reported hERG current change (%, negative = inhibition) at 10uM value of "O=[N+]([O-])c1cc(-n2cnnn2)ccc1N1CCC(Cc2ccccc2)CC1" .
Resp: -54.9

Req: Looking for the measured hERG current change (%, negative = inhibition) at 10uM of "COc1ccc(CN2CC=C(c3ccc(F)cc3)CC2)cc1Br" , can you help?
Resp: -11.7

Req: Give the measured hERG current change (%, negative = inhibition) at 10uM of "COc1ccc(C(=O)N/N=C/c2ccc(N3CCOCC3)s2)cc1OC" .
Resp: 11.6

Req: So what's the measured hERG current change (%, negative = inhibition) at 10uM for this one? "CCC1=C(OC(=O)N(CC)CC)N2C(=O)OC(=NCCc3c[nH]c4ccccc34)[C@]2(C)[C@H]2C1=CC[C@H]1C(=O)N(CC)C(=O)[C@H]12"
Resp: -9.68

Req: Quick one: hERG current change (%, negative = inhibition) at 10uM for "O=[N+]([O-])c1cccc(CN2CC=C(c3ccc(F)cc3)CC2)c1" ?
Resp: -39.2

Req: Value lookup for hERG current change (%, negative = inhibition) at 10uM; key = "O=C(CN1CCN(c2ccc(F)cc2)CC1)N1CCOCC1"
Resp: 12.9

----------
# tgt: human ether-à-go-go-related gene (hERG) potassium channel (human)
# assay_name: primary screen, population patch clamp on CHO cells stably expressing hERG; higher = less effect of the substance
The whole screen tested about 310,000 compounds, of which about 14,000 (4.5%) showed an effect of 50% or more. The effect is printed as a negative number. For the sample, strong results were picked, then their nearest neighbours and some compounds at random.
outcome_measure: hERG current change (%, negative = inhibition) at 10uM (%)
Your answer is read as %, so omit the unit and give the number.

compound=CCNc1ccc(C(=O)OCC)cc1NC(=O)c1cc(S(=O)(=O)N2CCOCC2)ccc1C units_text=% observed_result=-10.9

Req: // hERG current change (%, negative = inhibition) at 10uM lookup, key: COc1cccc(CN2CCNC(=O)C2CC(=O)NCCc2ccccn2)c1 (stereo not drawn)
Resp: 9.8

Req: # lookup: hERG current change (%, negative = inhibition) at 10uM of "CCn1c(SCC(=O)Nc2cccc(C)n2)nnc1-c1ccco1"
Resp: -50.9

Req: hERG current change (%, negative = inhibition) at 10uM for "CCCCn1c(SCC(=O)Nc2cc(C)on2)nnc1-c1ccco1" ?
Resp: -23.3

----------
# tgt: human ether-à-go-go-related gene (hERG) potassium channel (human, UniProt Q12809)
# assay_name: primary screen, population patch clamp on CHO cells stably expressing hERG; higher = less effect of the substance
Screen size: about 310,000 compounds; about 14,000 (4.5%) showed an effect of 50% or more. The effect is printed as a negative number. The list comes from a sample in which strong results are over-represented; it also holds close analogues and randomly drawn compounds.
Measured hERG current change (%, negative = inhibition) at 10uM by item
Kindly answer with a numeric value in %, unit omitted.

Before answering, review these 5 worked examples.
compound="Cc1ccc(C2C(N)C(=O)N2c2ccc(C)cc2)cc1 (centres unmarked)" observed_result=-5.54
compound="CC1N(C)c2cc(NC(=O)c3ccco3)c(P(=O)(Nc3ccc([N+](=O)[O-])cc3)N3CCOCC3)cc2C1(C)C (centres unmarked)" observed_result=-56
compound=CC(=O)c1cc(NC(=O)c2ccccc2)c(=O)oc1/C=C/N(C)C observed_result=-12.1
compound=COc1ccc(CNC(=O)C[C@H]2C(=O)N(c3ccccc3)C[C@@H]2Cc2ccccc2)cc1 observed_result=-49.4
compound="CC(C)Cc1ccc(C(C)C(N)=NCCc2ccccc2)cc1.Cl (centres unmarked)" observed_result=-67.5

Req: Looking for the measured hERG current change (%, negative = inhibition) at 10uM of Cc1oc(-c2ccc(Cl)cc2)nc1CS(=O)CC(=O)NCc1ccco1 (centres unmarked) , can you help?
Resp: -35.6

Req: May I ask what hERG current change (%, negative = inhibition) at 10uM has been recorded for "CCOC(=O)c1oc2ccccc2c1CN1CCN(C)CC1.Cl" ?
Resp: -61.5

Req: May I ask what hERG current change (%, negative = inhibition) at 10uM has been recorded for "O=C(NCc1ccco1)C1CCN(Cc2ccc(F)cc2)CC1.O=C(O)C(=O)O" ?
Resp: -15.4

Req: Reported hERG current change (%, negative = inhibition) at 10uM, compound "CCCCn1nc(C(=O)Nc2cc(C(F)(F)F)ccc2N2CCOCC2)ccc1=O" : ____
Resp: -83.7

Req: # lookup: hERG current change (%, negative = inhibition) at 10uM of "CCOC(=O)c1oc2ccccc2c1CN1CCOCC1.Cl"
Resp: -4.56

Req: Record request: hERG current change (%, negative = inhibition) at 10uM value, item "CN1CCN(c2ccc([N+](=O)[O-])cc2NC(=O)c2ccco2)CC1"
Resp: -66.9

Req: Dear colleague, I am looking for the recorded hERG current change (%, negative = inhibition) at 10uM of the following compound: CC1N(C)c2cc(NC(=O)c3cccs3)c(P(=O)(Nc3ccc([N+](=O)[O-])cc3)N3CCOCC3)cc2C1(C)C (centres unmarked)
Resp: 12.2

Req: Bench note: what hERG current change (%, negative = inhibition) at 10uM did CCc1ccc(-c2nc(CS(=O)CC(=O)NCc3ccco3)c(C)o2)cc1 (centres unmarked) show?
Resp: 1.94

Req: Looking for the measured hERG current change (%, negative = inhibition) at 10uM of "Cc1cc(C(=O)Nc2cc(C(F)(F)F)ccc2N2CCOCC2)no1" , can you help?
Resp: 5.97

Req: So what does the record say about hERG current change (%, negative = inhibition) at 10uM for CC(C)Cc1ccc(C(C)C(=N)N)cc1.Cl (centres unmarked) ?
Resp: -6.14

Req: Item under review: "CCc1ccc(-c2nc(CN3CCC(C(=O)NCc4ccc(F)cc4)CC3)c(C)o2)cc1" . Reported hERG current change (%, negative = inhibition) at 10uM?
Resp: -50.5

Req: Report hERG current change (%, negative = inhibition) at 10uM for "CCOC(=O)c1oc2ccccc2c1CN1CCCCC1.Cl" please.
Resp: -55

Req: Looking for the measured hERG current change (%, negative = inhibition) at 10uM of CC12CCC(C(=O)N(CC(O)CN3CCN(Cc4ccccc4)CC3)C1=O)C2(C)C.Cl (centres unmarked) , can you help?
Resp: -6.03

Req: # lookup: hERG current change (%, negative = inhibition) at 10uM of CC(C)Cc1ccc(C(C)C(N)=Nc2ccc(O)cc2)cc1.Cl (centres unmarked)
Resp: -80.2

Req: Record request: hERG current change (%, negative = inhibition) at 10uM value, item "O=C(Nc1cc(C(F)(F)F)ccc1N1CCCCC1)c1ccco1"
Resp: 21.2

Req: Name the reported hERG current change (%, negative = inhibition) at 10uM value associated with the compound "O=C1N/C(=N/S(=O)(=O)c2ccccc2)S/C1=C/c1cccnc1"
Resp: 1.74

Req: Reported hERG current change (%, negative = inhibition) at 10uM, compound "Cc1oc(-c2ccc(Cl)cc2)nc1CN1CCC(C(=O)NCc2ccco2)CC1" : ____
Resp: -71.2

Req: # query: hERG current change (%, negative = inhibition) at 10uM of entry "O=C(NNC(=O)c1ccc(Cl)c([N+](=O)[O-])c1)c1ccncc1"
Resp: 13.2
